# Target of assay: T1, recombinant HMG1 produced in E. coli as calmodulin binding protein (CBP) fusion (human)
# T1 chain: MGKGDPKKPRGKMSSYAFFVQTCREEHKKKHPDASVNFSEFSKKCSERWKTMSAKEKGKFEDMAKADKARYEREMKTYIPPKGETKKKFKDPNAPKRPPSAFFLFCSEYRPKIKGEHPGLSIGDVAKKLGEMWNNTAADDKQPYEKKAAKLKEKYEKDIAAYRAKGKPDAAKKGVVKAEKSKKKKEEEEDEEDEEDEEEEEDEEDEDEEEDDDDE
# Experiment: cell-based or functional assay
Catalogue of IC50, inhibition of rHMG1 stimulated IL-12 release from human PBMCs values
Give your result in µg/mL as a bare value.

Study these solved cases before continuing.
# Binder, Assay result
records = [
    ("anti-HMG1 antibody S10 (antibody, V domains shown) VH: EVQLLESGGGLVQPGGSLRLSCAASGFTFSWYDMWWVRQAPGKGLEWVSWIVPSGGITAYADSVKGRFTISRDNSKNTLYLQMNSLRAEDTATYYCARGNYGPSPFDYWGQGTLVTVSS VL: DIQMTQSPGTLSLSPGERATLSCRATQSVRKNFLAWYQQKPGQAPRLLIYDASSRATGIPDRFSGSGSGTDFTLTISRLEPEDFAVYYCQQYGNSPIIFGQGTRLEIK", 1.13),
    ("anti-HMG1 antibody G4 (antibody, V domains shown, also called ATCC PTA-6258) VH: EVQLLESGGGLVQPGGSLRLSCAASGFTFSWYDMTWVRQAPGKGLEWVSSISPSGGYTKYADSVKGRFTISRDNSKNTLYLQMNSLRAEDTAVYYCTTEFYDYLDVWGKGTTVTVSS VL: DIQMTQSPGTLSLSPGEGATLSCRASQSVSSTYLAWYQQKPGQAPRLLIYEASKRATGTPARFSGSGSGTDFTLSISSLEPEDFAVYYCQHRHNWPPQWTFGQGTKVEVK", 0.715),
    ("anti-HMG1 antibody G2 (antibody, V domains shown) VH: EVQLLESGGGLVQPGGSLRLSCAASGFTFSWYKMQWVRQAPGKGLEWVSGISPSGGSTAYADSVKGRFTISRDNSKNTLYLQMNSLRAEDTAVYYCAKMGLFNTGNSYVDYWGQGTLVTVSS VL: AQSELTQPPSVSEAPGQRVTISCSGSTSNIGNNAVIWYQQLPGKAPKLLIYYDDLLPSGVSDRFSGSKSGTSGSLAISGLQSEDEADYYCASWDDNLNGPLFGGGTKLTVL", 1.26),
]

What the record says about anti-HMG1 antibody G12 (antibody, V domains shown) VH: EVQLLESGGGLVQPGGSLRLSCAASGFTFSYYMMTWVRQAPGKGLEWVSSISPSGGYTIYADSAKGRFTISRDNSKNTLYLQMNSLRAEDTAVYYCARALSTGSFWDYWGQGTLVTVSS VL: DIQMTQSPGTLSLSPGERATLSCRASESLTSTYVAWYQHKPGQAPRLLIHGGSTRATGIPVRFSGSGSGTDFTLTIATLEPEDFAVYYCQQYGSSPYTFGQGTKLEIK : IC50, inhibition of rHMG1 stimulated IL-12 release from human PBMCs is 2.79

What the record says about anti-HMG1 antibody S16 (antibody, V domains shown, also called ATCC PTA-6259) VH: EVQLLESGGGLVQPGGSLRLSCAASGFTFSWYSMLWVRQAPGKGLEWVSYISPSGGFTNYADSVKGRFTISRDNSKNTLYLQMNSLRAEDTAVYYCARWDYNSGWYYDHWGQGTLVTVSS VL: DIQMTQSPDTLSLSPGERATLSCRASQSVNSRNLAWYQQKPGQAPRLLIYGASTRATGIPDRFSGSVSGTEFTLTISSLQPDDFATYYCQQYNSYFTFGQGTKLEIK : IC50, inhibition of rHMG1 stimulated IL-12 release from human PBMCs is 1.24

Source: patent US20090169546A1
